What follows is a collection of pIC50 values obtained with PI3K (p110α subtype) (Bos taurus, UniProt P32871).
Sequence (P32871 whole entry): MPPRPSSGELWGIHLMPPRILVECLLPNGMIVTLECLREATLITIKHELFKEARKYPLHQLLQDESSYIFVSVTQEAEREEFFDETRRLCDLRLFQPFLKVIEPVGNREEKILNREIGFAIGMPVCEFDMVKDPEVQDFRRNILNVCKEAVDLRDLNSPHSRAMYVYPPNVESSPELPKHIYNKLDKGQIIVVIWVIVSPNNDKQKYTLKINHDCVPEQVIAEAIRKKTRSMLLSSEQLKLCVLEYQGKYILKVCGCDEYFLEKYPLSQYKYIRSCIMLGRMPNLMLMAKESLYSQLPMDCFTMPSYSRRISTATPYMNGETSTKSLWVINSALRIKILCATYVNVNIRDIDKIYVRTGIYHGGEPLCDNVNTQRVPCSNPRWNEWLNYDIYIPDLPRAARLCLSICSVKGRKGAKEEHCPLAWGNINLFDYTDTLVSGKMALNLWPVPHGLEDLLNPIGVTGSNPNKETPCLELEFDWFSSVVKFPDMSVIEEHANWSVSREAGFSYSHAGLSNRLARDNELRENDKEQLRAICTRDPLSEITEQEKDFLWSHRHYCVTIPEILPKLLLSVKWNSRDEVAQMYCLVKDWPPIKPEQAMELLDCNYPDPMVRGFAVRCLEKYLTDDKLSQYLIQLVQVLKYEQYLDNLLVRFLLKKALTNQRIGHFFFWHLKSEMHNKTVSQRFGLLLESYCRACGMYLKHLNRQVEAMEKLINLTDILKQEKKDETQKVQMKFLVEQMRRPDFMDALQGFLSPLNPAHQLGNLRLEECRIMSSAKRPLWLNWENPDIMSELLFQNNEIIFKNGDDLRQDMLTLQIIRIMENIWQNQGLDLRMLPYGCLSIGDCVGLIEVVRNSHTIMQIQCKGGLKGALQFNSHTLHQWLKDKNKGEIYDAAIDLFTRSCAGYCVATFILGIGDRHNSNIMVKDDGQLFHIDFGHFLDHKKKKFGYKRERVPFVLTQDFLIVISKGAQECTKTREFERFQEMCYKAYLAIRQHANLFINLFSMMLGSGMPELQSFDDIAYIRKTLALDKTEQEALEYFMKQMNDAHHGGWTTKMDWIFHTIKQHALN
pIC50: −log10 of the molar value.

>  <smiles_str>
Nc1ccc(C(=O)Nc2cccc(-c3nc(N4CCOCC4)c4oc5ncccc5c4n3)c2)cn1

>  <measured_target>
PI3K (p110α subtype) (Bos taurus, UniProt P32871)

>  <pIC50>
> 6.00

$$$$

Give pIC50 for O=C(Nc1cccc(-c2nc(N3CCOCC3)c3oc4ncccc4c3n2)c1)c1ccccn1
> 6.00
